tested target: T1, GST-PSD95 PDZ domain 2 (human)
T1 construct: also called PSD95 d2; PSD-95 d2
procedure summary: G assay competition against NMDAR2A or R2B peptide, FIG. 10
Ends that are not written are not given here.
measured metric: IC50

Request: Entry YGRKKRRQRRREKHFRETEV (also: N-terminal biotin when used as labelled ligand) [TatTAX: TAT transporter sequence coupled to the C-terminal 9 amino acids of Tax] has what IC50?
Response: 100 to 1000 nM
